- EXPERIMENTAL TARGET: JAK3 (recombinant human kinase domain; h-jak3(810-1124)) (Homo sapiens)
- Construct: h-jak3(810- 1124)-sf9-c; made in house; host or cells: Sf9 insect cells
- ASSAY SUMMARY: Determination of IC50 of Janus Kinase (JAK) inhibition: JAK3, radioactive end-point assay with 33P-ATP
- Type: biochemical
- EXPERIMENTAL SETUP: JAK3 kinase domain; ATP 1.5 uM, peptide 50 uM, 20 minutes, room temperature, 10% DMSO; read-out: Ic50 h-jak3(810-1124)-sf9-c:no additive
pIC50 values by entry
Kindly note that pIC50 refers to -log10 of the concentration in mol/L and answer with the value alone.

// worked examples, pIC50 included
{"columns": ["COMPOUND", "MEASURED METRIC", "OBSERVED"],
 "data": [
  ["C[C@H](NC(=O)c1c[nH]c2ncc(C3CC3)nc12)[C@](C)(O)CC1CC1 [Example I-48]", "pIC50", 6.94],
  ["C[C@H](NC(=O)c1c[nH]c2ncc(-c3ccc(C(=O)N[C@H]4C[C@@H]4c4ccccc4)s3)nc12)C(C)(C)C [Example I-191]", "pIC50", 9.26],
  ["CC(C)(O)C(NC(=O)c1c[nH]c2ncc(C3CC3)nc12)C(F)(F)F (stereo not shown) [Example I-93]", "pIC50", 7.24]
]}

Attention now turns to another entry.
Report pIC50 for C[C@H](NC(=O)c1c[nH]c2ncc(-c3ccc(C(=O)NC4CCS(=O)(=O)CC4)s3)nc12)C(C)(C)C [Example I-212] please. 9.80

---

- EXPERIMENTAL TARGET: JAK3 (recombinant human kinase domain; h-jak3(810-1124)) (Homo sapiens)
- Construct: h-jak3(810- 1124)-sf9-c; made in house; host or cells: Sf9 insect cells
- ASSAY SUMMARY: Determination of IC50 of Janus Kinase (JAK) inhibition: JAK3, radioactive end-point assay with 33P-ATP
- Format: biochemical
- EXPERIMENTAL SETUP: JAK3 kinase domain; ATP 1.5 uM, peptide 50 uM, 20 minutes, room temperature, 10% DMSO; read-out: Ic50 h-jak3(810-1124)-sf9-c:no additive
MEASURED METRIC: pIC50
Kindly note that pIC50 refers to -log10 of the concentration in mol/L and answer with the value alone.

{"columns": ["MOLECULE", "EXPERIMENTAL TARGET", "pIC50"],
 "data": [
  ["CCC(CC)NC(=O)c1c[nH]c2ncc(C3CC3)nc12 [Example I-26]", "JAK3 (recombinant human kinase domain; h-jak3(810-1124)) (Homo sapiens)", 8.39],
  ["COc1cccc(CNC(=O)c2ccc(-c3cnc4[nH]cc(C(=O)N[C@@H](C)C(C)(C)C)c4n3)s2)c1 [Example I-206]", "JAK3 (recombinant human kinase domain; h-jak3(810-1124)) (Homo sapiens)", 9.49],
  ["CC(C)NC(=O)c1c[nH]c2ncc(Oc3ccc4ccn(C)c4c3)nc12 [Example I-276]", "JAK3 (recombinant human kinase domain; h-jak3(810-1124)) (Homo sapiens)", 6.24],
  ["CC[C@@H](NC(=O)c1c[nH]c2ncc(C3CC3)nc12)C(C)(C)O [Example I-44]", "JAK3 (recombinant human kinase domain; h-jak3(810-1124)) (Homo sapiens)", 7.34],
  ["COC[C@@H](NC(=O)c1c[nH]c2ncc(C3CC3)nc12)C(C)(C)C [Example I-65]", "JAK3 (recombinant human kinase domain; h-jak3(810-1124)) (Homo sapiens)", 6.58],
  ["Cc1cc(-c2cnc3[nH]cc(C(=O)N[C@@H](C)C(C)(C)C)c3n2)sc1C(=O)N1CC2(COC2)C1 [Example I-221]", "JAK3 (recombinant human kinase domain; h-jak3(810-1124)) (Homo sapiens)", 10.10]
]}

Report pIC50 for C[C@@H](NC(=O)c1c[nH]c2ncc(Oc3ccccc3)nc12)C1CCCCC1 [Example I-129] please. 6.65

Report pIC50 for CC(C)NC(=O)c1c[nH]c2ncc(Oc3ccccc3C(F)(F)F)nc12 [Example I-236] please. 5.53

---

- EXPERIMENTAL TARGET: JAK3 (recombinant human kinase domain; h-jak3(810-1124)) (Homo sapiens, UniProt P52333)
- Construct: h-jak3(810- 1124)-sf9-c; made in house; host or cells: Sf9 insect cells
- Sequence (P52333 810-1124): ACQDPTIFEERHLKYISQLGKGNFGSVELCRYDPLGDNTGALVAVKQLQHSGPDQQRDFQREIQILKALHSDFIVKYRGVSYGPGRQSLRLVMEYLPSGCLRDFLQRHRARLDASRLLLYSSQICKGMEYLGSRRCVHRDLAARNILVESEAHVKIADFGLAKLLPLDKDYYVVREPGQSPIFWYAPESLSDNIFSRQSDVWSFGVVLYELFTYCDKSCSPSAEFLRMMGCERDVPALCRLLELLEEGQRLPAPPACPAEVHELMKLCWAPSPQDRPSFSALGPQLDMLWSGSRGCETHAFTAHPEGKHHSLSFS
- ASSAY SUMMARY: Determination of IC50 of Janus Kinase (JAK) inhibition: JAK3, radioactive end-point assay with 33P-ATP
- Format: biochemical
- EXPERIMENTAL SETUP: JAK3 kinase domain; ATP 1.5 uM, peptide 50 uM, 20 minutes, room temperature, 10% DMSO; read-out: Ic50 h-jak3(810-1124)-sf9-c:no additive
Binary label based on IC50 with cut-off 90 nM: below gives 1, not below gives 0.

{"columns": ["COMPOUND", "LABEL CLASS"],
 "data": [
  ["C[C@H](NC(=O)c1c[nH]c2ncc(-c3ccc(C(=O)N(C)Cc4ccc(F)cc4)s3)nc12)C(C)(C)C", 1],
  ["CCNC(=O)c1c[nH]c2ncc(Oc3cccc(C#N)c3)nc12", 0],
  ["CCCC[C@H](NC(=O)c1c[nH]c2ncc(C3CC3)nc12)C(C)(C)O", 0],
  ["C[C@H](NC(=O)c1c[nH]c2ncc(C3CCCC3)nc12)C(C)(C)O", 0]
]}

Strictly below 90 nM in IC50? O=C(NC(C1CCCCC1)C1CC1)c1c[nH]c2ncc(C3CC3)nc12 (centres unmarked) 1

Strictly below 90 nM in IC50? C[C@H](NC(=O)c1c[nH]c2ncc(C3=CCCC3)nc12)C(C)(C)O 1

Strictly below 90 nM in IC50? CC(=O)NC1Cc2ccc(Oc3cnc4[nH]cc(C(=O)NC(C)C)c4n3)cc2C1 (centres unmarked) 0

---

- EXPERIMENTAL TARGET: JAK3 (recombinant human kinase domain; h-jak3(810-1124)) (Homo sapiens)
- Construct: h-jak3(810- 1124)-sf9-c; made in house; host or cells: Sf9 insect cells
- ASSAY SUMMARY: Determination of IC50 of Janus Kinase (JAK) inhibition: JAK3, radioactive end-point assay with 33P-ATP
- Type: biochemical
- EXPERIMENTAL SETUP: JAK3 kinase domain; ATP 1.5 uM, peptide 50 uM, 20 minutes, room temperature, 10% DMSO; read-out: Ic50 h-jak3(810-1124)-sf9-c:no additive
IC50 values by entry
Unit nM implied. Number only.

// worked examples, IC50 included
{"columns": ["COMPOUND", "OBSERVED"],
 "data": [
  ["CC(C)NC(=O)c1c[nH]c2ncc(Oc3cccc(C(F)(F)F)c3)nc12", 784],
  ["C[C@H](NC(=O)c1c[nH]c2ncc(-c3cn(-c4cc(C(F)(F)F)ccc4F)cn3)nc12)C(C)(C)C", 2.99],
  ["C[C@H](NC(=O)c1c[nH]c2ncc(C3CC3)nc12)c1ccccc1", 427]
]}

Attention now turns to another entry.
Report IC50 for CC(NC(=O)c1c[nH]c2ncc(C3CC3)nc12)C(C)(C)CO (stereo not shown) please. 3.8

---

- EXPERIMENTAL TARGET: JAK3 (recombinant human kinase domain; h-jak3(810-1124)) (Homo sapiens)
- Construct: h-jak3(810- 1124)-sf9-c; made in house; host or cells: Sf9 insect cells
- ASSAY SUMMARY: Determination of IC50 of Janus Kinase (JAK) inhibition: JAK3, radioactive end-point assay with 33P-ATP
- Format: biochemical
- EXPERIMENTAL SETUP: JAK3 kinase domain; ATP 1.5 uM, peptide 50 uM, 20 minutes, room temperature, 10% DMSO; read-out: Ic50 h-jak3(810-1124)-sf9-c:no additive
log10 of IC50 values by entry
Recall that a logarithmic scale is used here: each number is log10 of IC50 in nM.

{"columns": ["COMPOUND", "EXPERIMENTAL TARGET", "MEASURED METRIC", "OBSERVED"],
 "data": [
  ["CC(C)c1cccc(-n2cnc(-c3cnc4[nH]cc(C(=O)N[C@@H](C)C(C)(C)C)c4n3)c2)c1 [Example I-152]", "JAK3 (recombinant human kinase domain; h-jak3(810-1124)) (Homo sapiens)", "log10 of IC50", 1.40],
  ["C=Cc1cnc2[nH]cc(C(=O)NCC(C)(C)CO)c2n1 [Example I-36]", "JAK3 (recombinant human kinase domain; h-jak3(810-1124)) (Homo sapiens)", "log10 of IC50", 1.53]
]}

Report log10 of IC50 for CC(C)NC(=O)c1c[nH]c2ncc(Oc3cccc(OC(F)(F)F)c3)nc12 [Example I-230] please. 3.42

Report log10 of IC50 for Cc1ncccc1Oc1cnc2[nH]cc(C(=O)NC(C)C)c2n1 [Example I-280] please. 3.60

Report log10 of IC50 for C[C@H](NC(=O)c1c[nH]c2ncc(-c3ccc(C(=O)NCc4c(F)cccc4F)s3)nc12)C(C)(C)C [Example I-188] please. -0.39

Report log10 of IC50 for C[C@H](NC(=O)c1c[nH]c2ncc(Oc3ccccc3)nc12)C1CCCCC1 [Example I-123] please. 3.12

Report log10 of IC50 for CCc1ccccc1Oc1cnc2[nH]cc(C(=O)NC(C)C)c2n1 [Example I-238] please. 3.59

Report log10 of IC50 for CC(C)NC(=O)c1c[nH]c2ncc(Oc3ccc4ccccc4c3)nc12 [Example I-242] please. 3.07

Report log10 of IC50 for CCNC(=O)c1c[nH]c2ncc(Oc3ccc4cc[nH]c4c3)nc12 [Example I-273] please. 2.67

Report log10 of IC50 for CC(NC(=O)c1c[nH]c2ncc(Oc3ccc(F)cc3F)nc12)C1CC1 (centres unmarked) [Example I-105] please. 2.01

Report log10 of IC50 for CC1CCCC(C)N1C(=O)c1ccc(-c2cnc3[nH]cc(C(=O)N[C@@H](C)C(C)(C)C)c3n2)s1 (some centres unmarked) [Example I-181] please. -0.21
